Listed here are compounds together with their documented MIC.
# Test system: Cryptococcus deneoformans
# ASSAY_DETAILS: Antimicrobial activity against Cryptococcus neoformans var. neoformans isolate 14 after 48 hrs by microdilution broth method
# Format: functional
# RECORDED_CONDITIONS: isolate 14, 48 h
Note: unit µg/mL is implicit; provide only the numeric part.

Example cases with answers are listed next.
| QUERY_SMILES | SYSTEM_UNDER_TEST | MIC / µg/mL |
| --- | --- | --- |
| Cc1c(/[N+]([O-])=N/C#N)c(-c2ccccn2)nn1C | Cryptococcus deneoformans | 16 |
| CC[C@@H]([C@H](C)O)n1ncn(-c2ccc(N3CCN(c4ccc(OC[C@@H]5CO[C@@](Cn6cncn6)(c6ccc(F)cc6F)C5)cc4)CC3)cc2)c1=O | Cryptococcus deneoformans | 0.03 |
| OC(Cn1cncn1)(Cn1cncn1)c1ccc(F)cc1F | Cryptococcus deneoformans | 0.5 |
| Cc1nn(C)c(-c2cccs2)c1/[N+]([O-])=N/C#N | Cryptococcus deneoformans | 0.25 |
| Cc1cc(-c2nn(C)c(C)c2/[N+]([O-])=N/C#N)nn1C | Cryptococcus deneoformans | 16 |

Provide one value: measured MIC of `Cc1ccc(S(=O)(=O)/N=[N+](\[O-])c2c(-c3cccs3)nn(C)c2C)cc1`
64

Provide one value: measured MIC of `C[C@@H]1[C@H](O)[C@@H](C)/C=C/C=C/C=C/C=C/C=C/C=C/C=C/[C@H](O[C@@H]2O[C@H](C)[C@@H](O)[C@H](N)[C@@H]2O)C[C@@H]2O[C@](O)(C[C@@H](O)C[C@@H](O)[C@H](O)CC[C@@H](O)C[C@@H](O)CC(=O)O[C@H]1C)C[C@H](O)[C@H]2C(=O)O`
0.25
